Test Method Notes: inhibition of 3D7 malaria parasite growth – strain 3D7 (AID 2306);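 also: 0% = DMSO wells and 100% = chloroquine plus artemisinin control wells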
Condition Summary: P. falciparum 3D7 erythrocytic growth, LDH absorbance, 72 h; at 2 µM; stronger effect = higher value
Quantity Name: growth inhibition (%)
Numbers only, in %.

In [3]: df
Out[3]:
                                   compound  unit_label  measured_value
0  CC(=O)c1ccc(O)c(CC(O)CO)c1 (stereo unspecified)           %             100

Go through the items and report each one's growth inhibition.
1. CC[C@H](C)CNC(=O)c1cncc(-c2ccc(CNC3CCCC3)cc2)c1
2. Cc1cc(N[C@@H](Cc2ccccc2)C(=O)Nc2ccccc2)nc(NCCc2cccnc2)n1
3. N#CCCN1CCN(Cc2cccc(-c3ccc(-c4nc5ccc(C(F)(F)F)cc5[nH]4)cc3)c2)CC1
4. COc1ccc(Br)cc1/C=C/C(=O)Nc1ccc2c(c1)CCCN(C)C2
5. Oc1ccc2ccccc2c1CNC1CCCCCC1
6. CCN1CCN(c2cc(C)c3cc(NC(=O)c4ccc([N+](=O)[O-])c(C)c4)ccc3n2)CC1
7. O=C(c1cc(OC(F)(F)F)ccc1O)N1CCN(c2ccccc2)CC1

Result:
97
95
101
84
83
92
88

Go through the items and report each one's growth inhibition.
1. COc1ccc2ncc(Cl)c(CCN3CCC(NCc4ccc5c(n4)NC(=O)CO5)CC3)c2c1
2. N#Cc1cncc(-c2nc3c(N4CCCC(N)C4)cccc3n2CCNCc2ccccc2)c1 (stereo unspecified)
3. COc1cccc(C(O)CNc2ccnc(Nc3cccc(-c4csc(C)n4)c3)n2)c1 (stereo unspecified)
4. CNC(=O)Cc1ccc(C(=O)Nc2cccc(-c3ccc(-c4nc5c(C)cccc5[nH]4)s3)c2)cc1

Result:
[92, 101, 99, 91]

Go through the items and report each one's growth inhibition.
1. O=S(=O)(NCCN1CCCC1)c1cccc(-c2ccc(CNCc3ccccc3)cc2)c1
2. CCN(CC)CCCC(C)Nc1ccnc2[nH]c3ccccc3c12 (stereo unspecified)
3. CN1CCCN(Cc2ccc(-c3cccc(NC(=O)c4cccc(F)c4)c3)cc2)CC1
4. CCCCN(CCCC)C(=N)c1cccc2c1CCCC2
5. Cc1ccc2nc(C)cc(NN=Cc3ccc(Cl)cc3)c2c1
6. COc1ccc(CNCc2ccsc2)cc1-c1ccc(S(=O)(=O)NCCN2CCCC2)c(C)c1
7. CNC(=O)c1cc(Nc2nnc(-c3ccc(C)c(S(=O)(=O)NC4CCCCC4)c3)c3ccccc23)ccc1OC
8. CCc1ccc(CN2CCC(NC(=O)c3ccc(-c4ccccc4F)s3)CC2)cc1

Result:
95
82
91
95
102
85
87
80

Quick note, growth inhibition for `CCCN(CCC)c1nn2c(=O)c(C(=O)N3CCN(Cc4ccccc4)CC3)cnc2s1` landed at 84

###

Test Method Notes: inhibition of 3D7 malaria parasite growth – strain 3D7 (AID 2306);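 also: 0% = DMSO wells and 100% = chloroquine plus artemisinin control wells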
Condition Summary: P. falciparum 3D7 erythrocytic growth, LDH absorbance, 72 h; at 2 µM; stronger effect = higher value
Would you mind telling me the reported growth inhibition of each entry?
One number for each entry, in %.

Go through the items and report each one's growth inhibition.
1. CC[C@H](NC(=O)c1c(N)c(-c2sccc2Cl)nc2ccccc12)c1ccccc1
2. N#Cc1ccc(N2CCN(Cc3ccc(-c4ccc(-c5nc6ccc(C(F)(F)F)cc6[nH]5)cc4)cc3)CC2)nc1

Result:
[99, 101]

Go through the items and report each one's growth inhibition.
1. COc1ccc2nccc(NN=Cc3cccc(C)n3)c2c1
2. COc1ccc(-c2ccc(NC(=O)c3ccc(Cl)cc3)cc2)cc1CN(C)CCO
3. Cc1cnc(-c2ccc(NC(=O)c3coc4ccc(N5C[C@@H](C)N(C)[C@@H](C)C5)cc34)cc2)o1
4. CN1CCN(CCCNc2ncc3c(-c4ccc(NC(=O)Nc5cc(C(F)(F)F)ccc5F)c(F)c4)nn(C)c3n2)CC1
5. CC(C)(C)OC(=O)[C@H](CC(N)=O)NC(=O)c1ccc(-c2ccc(-c3nc4ccc(C(F)(F)F)cc4[nH]3)s2)cc1
6. COC(=O)c1cccc(N2CCN(CCCNC(=O)/C(=C/C=C/c3cc4cc(Cl)c(Cl)cc4[nH]3)OC)CC2)c1
7. CCc1ccccc1OCCCON1C(N)=NC(N)=NC1(C)C
8. COc1cccc2[nH]c(NCCCNCc3cc(Br)cc(Br)c3)nc12

Result:
100
92
96
98
94
100
95
88

Go through the items and report each one's growth inhibition.
1. CCCc1cc(=O)[nH]c(-n2nc(C)cc2NC(=O)CC(c2ccccc2)c2ccccc2)n1
2. CN(C)C(CNC(=O)c1cc(-c2ccncc2)c(-c2ccc(Cl)c(O)c2)o1)c1ccccc1 (stereo not given)
3. Cc1nc(-c2nc(N3CCOCC3)ncc2-c2ccsc2)sc1C

Result:
97
91
89

src = PubChem BioAssay
